test: ATG_TA_CIS: Attagene CIS-FACTORIAL HepG2 Assay for human TA Basal Promoter (AID 2282964); details: HepG2 Attagene CIS-factorial TA basal promoter reporter; actives raise or lower the signal
Calls of active or inactive are those of the source. How the source made its calls: active means hit-call score of the fitted dose curve at least 0.9, where 1 is the maximum; inactive means score below 0.9.
Write down the outcome that applies. Available outcomes: active, inactive

State the result this test recorded for Cc1cc(C2(c3cc(C)c(O)cc3C)OS(=O)(=O)c3ccccc32)c(C)cc1O . inactive

Entry O=C1O[C@@H]2[C@@H](O)[C@H](O)O[C@@H]2[C@H]1O : call = ? inactive

Please state the recorded outcome for this compound: CCC(=O)OCCC(C)CCC=C(C)C (stereo unspecified) inactive

Kindly provide the recorded test outcome for the following compound: CCCc1c(OCCCOc2ccc(OCC(=O)O)cc2)ccc(C(C)=O)c1O active

Entry c1ccc2c(c1)c1cccc3ccc4cccc2c4c31 : call = ? inactive

Recorded test outcome, item Cc1ccc2n[nH]nc2c1 inactive

Please indicate how the test categorized CC1CCC(C(C)(C)O)CC1 (stereo unspecified) . inactive

What did the test return for O=Cc1ccc(F)cc1 ? inactive

What did the test return for OCCOCCOCCOCCO ? inactive

For O=C(O)c1cn(C2CC2)c2cc(N3CCNCC3)c(F)cc2c1=O , which call appears in the assay record? inactive

Write down the call the test reported for this compound. Item: CCCCCCCCCC=O inactive

Any idea what this test logged for CCCCCCC#CC(=O)OC ? inactive

Entry CCC(=O)/C=C/C1C(C)=CCCC1(C)C (stereo unspecified) : call = ? inactive

Called result for CC(=O)OCc1ccc2c(c1)OCO2 inactive

So what was the verdict on c1ccc2sc(SN(C3CCCCC3)C3CCCCC3)nc2c1 in this test? inactive

I'd appreciate the recorded outcome for CC(C)=CCCC(C)CC=O (stereo unspecified) from this test. inactive

Given O=c1[nH]nnc2ccccc12 , state the outcome it received in this test. inactive

Could you kindly confirm the outcome this assay logged for CCCCCCOC(=O)CC ? inactive

Status in this test for Clc1ccc2c(c1)C(N1CCNCC1)=Nc1ccccc1O2 ? inactive

// outcome(item) with item = O=C1c2ccccc2C(=O)N1SC1CCCCC1 inactive

Answer briefly: the call reported for OCCCCCO in this assay. inactive

# outcome recorded in this test, key = Nc1cccc(S(=O)(=O)c2cccc(N)c2)c1 inactive

Which result was noted for this compound in the test: CC[C@]12CCCN3CCc4c(n(c5ccccc45)[C@@](O)(C(=O)OC)C1)[C@@H]32 inactive

Given CN(C)CCOCCN(C)C , state the outcome it received in this test. inactive

// return assay outcome for CCCCCCCCCCCCN(CCCCCCCCCCCC)CCCCCCCCCCCC inactive

Please let me know the test result on file for CC(C)(C#N)c1cc(Cn2cncn2)cc(C(C)(C)C#N)c1 . inactive

Hey, what did the test say about Cc1ccc(S)cc1 ? inactive

Could you kindly confirm the outcome this assay logged for C=C(C)[C@@H]1CCC2=CC(=O)C[C@@H](C)[C@]2(C)C1 ? inactive

Which outcome was entered for the compound O=C(O)Cc1cccc2ccccc12 in this test? inactive

Which outcome was assigned to CC(C)C(C)(C)C(C)(C)C(C)(C)S in this test? inactive

What did this assay record as the result for O=Cc1ccc(Cl)c([N+](=O)[O-])c1 ? inactive

Hi, sorry to bother you, what did the test record for CC1(C)C(=O)N(Br)C(=O)N1Cl ? inactive

Please state the recorded outcome for this compound: Cc1ccc(C(=O)O)o1 inactive

Outcome? CC(=O)OCC=Cc1ccccc1 inactive

Can you look up the reported call for CCC/C=C/C=O for me? inactive

Answer briefly: the call reported for Nc1cc(Cl)c(O)c(Cl)c1 in this assay. inactive

Could you please tell me the result logged for Clc1ccc(Cl)c(Cl)c1Cl in this assay? inactive

Which result was noted for this compound in the test: O=C(Oc1ccccc1)c1ccc(O)cc1 inactive

Could you please tell me the result logged for OCCN1CCNCC1 in this assay? inactive

What did this assay record as the result for CCCCCCCCCCCCCCCC(=O)OC[C@H](O)[C@H]1OC(=O)C(O)=C1O ? inactive

Lab log entry: c1cc(C(c2ccc(OCC3CO3)cc2)c2ccc(OCC3CO3)cc2)ccc1OCC1CO1 (stereo unspecified) — outcome as called in the assay? active

Record lookup: outcome of this test for COC(=O)C1=C(C)NC(C)=C(C(=O)OCCN(C)Cc2ccccc2)C1c1cccc([N+](=O)[O-])c1 (stereo unspecified) ? inactive

Per the assay record, what outcome was assigned to C#C[C@]1(O)CC[C@H]2[C@@H]3CCC4=Cc5oncc5C[C@]4(C)[C@H]3CC[C@@]21C ? active

Could you please tell me the result logged for O=C(O)c1ccc([N+](=O)[O-])cc1 in this assay? inactive

For COc1ccnc(CS(=O)c2nc3cc(OC(F)F)ccc3[nH]2)c1OC (stereo unspecified) , what call appears in the results of this test? inactive

For this compound, state the assay outcome: Cc1ccc(C=O)cc1 inactive

Could you kindly confirm the outcome this assay logged for CC(=O)Nc1ccccc1O ? inactive

# outcome recorded in this test, key = CC1=CC(=O)NS(=O)(=O)O1 inactive

# fetch the recorded call for O=C(O)c1ccc(C(=O)O)cc1 here inactive

Which outcome was assigned to Cc1ncc([N+](=O)[O-])n1C in this test? inactive

Which outcome did this test record for the compound CC1(C)OC[C@@H]2O[C@@]3(C(=O)O)OC(C)(C)O[C@H]3[C@@H]2O1 ? inactive

Fill in: this test's call for O=C(O)CCCCC1CCSS1 (stereo unspecified) is ___ inactive

Dear all, I need the recorded test outcome for COc1c(Cl)c(Cl)c(Cl)c(Cl)c1Cl , thank you. inactive

Tell me the assay call for C[C@H]1C[C@@H]2[C@H]([C@@H](O)C[C@@]3(C)[C@H]2CC[C@]3(O)C(=O)CO)[C@@]2(C)C=CC(=O)C=C12 please. inactive

Can you look up the reported call for Clc1nc(C(Cl)(Cl)Cl)c(Cl)c(Cl)c1Cl for me? inactive

Look up the recorded call for N#Cc1nc(Cl)c(Cl)c(Cl)c1Cl in this test. inactive

---

Target: Hepatocyte nuclear factor 4-alpha (Homo sapiens) (UniProt P41235)
Sequence (P41235 whole entry, looked up): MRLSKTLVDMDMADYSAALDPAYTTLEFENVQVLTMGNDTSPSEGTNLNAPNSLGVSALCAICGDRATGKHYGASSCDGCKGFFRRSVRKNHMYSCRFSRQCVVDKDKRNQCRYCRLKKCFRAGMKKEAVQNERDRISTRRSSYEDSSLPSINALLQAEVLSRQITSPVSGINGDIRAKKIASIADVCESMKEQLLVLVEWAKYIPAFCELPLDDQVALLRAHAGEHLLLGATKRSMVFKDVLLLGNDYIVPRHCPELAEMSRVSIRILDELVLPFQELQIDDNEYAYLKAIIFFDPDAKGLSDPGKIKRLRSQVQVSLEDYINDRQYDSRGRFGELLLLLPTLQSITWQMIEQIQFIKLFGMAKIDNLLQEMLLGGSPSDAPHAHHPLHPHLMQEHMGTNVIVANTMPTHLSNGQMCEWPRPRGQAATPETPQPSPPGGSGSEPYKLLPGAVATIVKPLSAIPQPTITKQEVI
Assay: ATG_HNF4a_TRANS: Attagene TRANS-FACTORIAL HepG2 Assay for human Hepatocyte Nuclear Factor 4 alpha (HNF4a) (AID 2282982)
Settings: HepG2 HNF4a transactivation reporter, mRNA readout
Experimental: ATG_TRANS is a cell-based, multiplexed-readout assay that uses HepG2, a human liver cell line, with measurements taken at 24 hours after chemical dosing in a 24-well plate.ATG_HNF4a_TRANS is one of 30 assay component(s) measured or calculated from the ATG_TRANS assay. […] This assay endpoint, ATG_HNF4a_TRANS, was analyzed in the positive analysis fitting direction relative to DMSO as the negative control and baseline of activity. […]
Results filed as inconclusive are left out. Activity calls are given as the source filed them. Rule for the calls: active = hit-call score of the fitted dose curve at least 0.9, where 1 is the maximum; inconclusive = response in the unintended direction; inactive = score below 0.9.
PROPERTY: outcome

Illustrative cases are given below, each with its answer.
COMPOUND	outcome
CC(CC(C)(C)C)CC(C)(C)CC(C)(C)C (centres undefined)	inactive
O=c1[nH]nnc2ccccc12	inactive
CC1=CC(=O)NS(=O)(=O)O1	inactive
Clc1cccc(Cl)n1	inactive
CNCCO	inactive

So what's the measured outcome for this one? CN(C)CCCN inactive

For O=S(=O)(O)NC1CCCCC1 , what is its reported outcome? inactive

Param item = Cc1ccc(C(=O)O)o1 ; retrieve measured outcome. inactive

Name the recorded outcome for CN1Cc2c(N)cccc2C(c2ccccc2)C1 (centres undefined) . inactive

Recorded outcome for CCCCc1ccc(N)cc1 , please? inactive

---

target: Transcription factor E2F1 (Homo sapiens) (UniProt Q01094); assay: ATG_E2F_CIS: Attagene CIS-FACTORIAL HepG2 Assay for human E2F Transcription Factor 1 (AID 2282935); conditions: HepG2 Attagene cis-reporter, E2F reporter RNA transcripts; actives raise or lower the signal
Sequence (Q01094 whole entry, looked up): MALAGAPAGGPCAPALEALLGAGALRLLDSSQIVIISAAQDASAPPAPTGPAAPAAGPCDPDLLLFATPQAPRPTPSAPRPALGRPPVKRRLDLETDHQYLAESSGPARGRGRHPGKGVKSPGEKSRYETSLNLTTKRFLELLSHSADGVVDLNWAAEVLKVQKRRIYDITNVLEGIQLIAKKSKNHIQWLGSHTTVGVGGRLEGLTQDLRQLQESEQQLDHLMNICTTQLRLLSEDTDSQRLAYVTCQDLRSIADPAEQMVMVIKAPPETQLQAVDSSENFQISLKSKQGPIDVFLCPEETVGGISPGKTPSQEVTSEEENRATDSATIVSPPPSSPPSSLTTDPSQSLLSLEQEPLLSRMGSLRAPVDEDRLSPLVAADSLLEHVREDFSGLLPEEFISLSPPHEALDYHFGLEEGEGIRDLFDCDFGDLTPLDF
Activity calls are given as the source filed them. How the source made its calls: active means hit-call score of the fitted dose curve at least 0.9, where 1 is the maximum; inactive means score below 0.9.
Can you answer with just one of these options? 1 = active, -1 = inactive

Assay result, entry N#Cc1ccccc1 — outcome? -1

What call does the record list for CC1(CO)CN(c2ccccc2)NC1=O (stereo not given) ? -1

Any idea what this test logged for CCCC/C=C\CCCCCCCCCC=O ? -1

// param item: COc1cc(C)cc(O)c1 ; yields the recorded call -1

Just curious, what result did C=C(C)C(=O)O[C@H]1C[C@@H]2CC[C@@]1(C)C2(C)C get here? 1

Call for entry O=C(O)c1snc(Cl)c1Cl : -1

Please share the test call associated with S=C(S)NCCNC(=S)S . -1

Dear all, I need the recorded test outcome for C=C(C)[C@@H]1CCC2=CC(=O)C[C@@H](C)[C@]2(C)C1 , thank you. -1

Could you please tell me the result logged for O=Cc1ccc(F)cc1 in this assay? -1

Hi, do you know how C=CCOc1nc(OCC=C)nc(OCC=C)n1 came out in this test? -1

Call for entry O=C(O)c1cn(-c2ccc(F)cc2)c2cc(N3CCNCC3)c(F)cc2c1=O : -1

Query: recorded result category for CC[C@]12CCCN3CCc4c(n(c5ccccc45)[C@@](O)(C(=O)OC)C1)[C@@H]32 in this test -1

Per the assay record, what outcome was assigned to CC(C)Oc1ccccc1O ? -1

Lab log entry: O=C(O)CCCCC1CCSS1 (stereo not given) — outcome as called in the assay? -1

Recorded test outcome, item CCN(CC)CCOC(=O)c1ccc(N)cc1 -1
